# credit: patent US11780845B2

Listed here: items and their measured pIC50.
# assay target: UniProt:P21802
# Sequence (P21802 22-821): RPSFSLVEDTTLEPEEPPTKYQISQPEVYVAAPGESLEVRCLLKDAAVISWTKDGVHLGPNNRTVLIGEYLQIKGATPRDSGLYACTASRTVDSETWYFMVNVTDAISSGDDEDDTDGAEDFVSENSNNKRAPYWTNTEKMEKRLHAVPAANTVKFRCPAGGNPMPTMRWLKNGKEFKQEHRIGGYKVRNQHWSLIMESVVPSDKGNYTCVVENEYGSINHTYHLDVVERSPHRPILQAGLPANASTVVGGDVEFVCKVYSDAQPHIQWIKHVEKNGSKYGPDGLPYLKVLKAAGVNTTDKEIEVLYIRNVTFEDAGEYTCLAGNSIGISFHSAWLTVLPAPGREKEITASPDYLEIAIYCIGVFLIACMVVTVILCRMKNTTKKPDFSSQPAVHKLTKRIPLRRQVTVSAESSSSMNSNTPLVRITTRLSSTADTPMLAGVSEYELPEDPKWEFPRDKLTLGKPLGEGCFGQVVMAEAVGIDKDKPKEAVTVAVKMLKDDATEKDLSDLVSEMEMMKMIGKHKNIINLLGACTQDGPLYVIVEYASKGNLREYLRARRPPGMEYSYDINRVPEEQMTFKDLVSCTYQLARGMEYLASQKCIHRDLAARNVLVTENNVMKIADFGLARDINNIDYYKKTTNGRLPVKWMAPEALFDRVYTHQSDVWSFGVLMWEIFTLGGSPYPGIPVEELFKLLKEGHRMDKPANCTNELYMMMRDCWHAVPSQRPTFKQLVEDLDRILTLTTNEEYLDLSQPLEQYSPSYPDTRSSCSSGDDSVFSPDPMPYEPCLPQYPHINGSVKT
# assay overview: Biochemical FGFR2 Caliper assay
pIC50: −log10 of the molar value.

# compound, pIC50
data = [
    ("C#Cc1cc(C)c(-c2c(C3=CC[C@@]4(CC3)Cc3ccc(C)nc3O4)c3c(N)ncnc3n2C)cn1", "4.00 to 6.00"),
    ("C#Cc1cc(C)c(-c2c(-c3ccc(Oc4nccc(C)n4)c(F)c3)c3c(Cl)ncnc3n2C)c(F)n1 [Example 1401]", "> 7.00"),
    ("C#Cc1nc2ccc(-c3c(-c4ccc(Oc5nccc(C)n5)cc4)c4c(N)ncnc4n3C)cc2o1", "> 7.00"),
    ("C#Cc1cc(Cl)c(-c2c(-c3ccc(Oc4nccc(C)n4)c(F)c3)c3c(N)ncnc3n2C)cn1", "> 7.00"),
    ("C=C(C)C(=O)Nc1ccc(-c2c(-c3cnn(-c4ccccc4)c3C)c3c(N)ncnc3n2C)cc1", "4.00 to 6.00"),
    ("C#Cc1ncc(-c2c(-c3ccc(Oc4nccc(C)n4)cc3F)c3c(N)ncnc3n2C)c(C)c1F", "> 7.00"),
    ("C=CC(=O)N1CC=C(c2c(C3=CC[C@@H](C(=O)N4CCCC4)CC3)c3c(N)ncnc3n2C)C1 (single isomer, unassigned)", "6.60 to 7.00"),
    ("C=C(C)C(=O)Nc1ccc(-c2c(C3=CC[C@H](C(=O)N4CCC[C@@H]4C4CC4)CC3)c3c(N)ncnc3n2C)cc1", "4.00 to 6.00"),
    ("Cc1ccnc(Oc2ccc(-c3c(-c4ccc(-c5cnc(C#N)o5)cc4)n(C)c4ncnc(N)c34)cc2)n1", "4.00 to 6.00"),
    ("C#Cc1ccc(-c2c(-c3ccc(Oc4nccc(C)n4)cc3)c3c(N)ncnc3n2C)cc1F", "6.60 to 7.00"),
    ("C#Cc1cc2ccc(-c3c(-c4ccc(Oc5nccc(C)n5)c(F)c4)c4c(N)ncnc4n3C)cc2cn1", "6.00 to 6.60"),
    ("C#Cc1ncc(-c2c(C3=CC[C@@H](C(=O)N4CCCC4)CC3)c3c(N)ncnc3n2C)c(C)c1F (single isomer, unassigned)", "6.00 to 6.60"),
    ("C=C(C)C(=O)Nc1ccc(-c2cn3ncnc(N)c3c2-c2ccc(C(=O)N3CCCCC3)cc2)cc1", "4.00 to 6.00"),
    ("Cc1ccnc(Oc2ccc(-c3c(-c4ccc(NC(=O)/C=C/CN(C)C)cc4)n(C)c4ncnc(N)c34)cc2)n1", "6.60 to 7.00"),
    ("C=C(C)C(=O)Nc1ccc(-c2cn3ncnc(N)c3c2-c2ccc(C(=O)NCC(C)(C)O)cc2)cc1", "6.00 to 6.60"),
    ("C=C(C)C(=O)Nc1ccc(-c2c(C3=CCN(c4ccccc4)CC3)c3c(N)ncnc3n2C)cc1", "4.00 to 6.00"),
    ("Cn1c(-c2ccc(NC(=O)[C@@H]3CN3)cc2)c(-c2ccc(C(=O)N3CCCC3)cc2)c2c(N)ncnc21 (single isomer, unassigned)", "4.00 to 6.00"),
    ("C=C(C)C(=O)Nc1ccc(-c2c(C3=CC[C@H](C(=O)N4CCC[C@@]45CCOC5)CC3)c3c(N)ncnc3n2C)cc1 (single isomer, unassigned) [Example 955]", "4.00 to 6.00"),
    ("C#Cc1cnc(-c2c(-c3ccc(Oc4nccc(C)n4)c(F)c3)c3c(N)ncnc3n2C)c(C)n1", "> 7.00"),
    ("C=C(C)C(=O)Nc1ccc(-c2c(-c3cnc(-c4cccc(OC)c4)s3)c3c(N)ncnc3n2C)cc1", "6.00 to 6.60"),
    ("C#Cc1ccc(-c2c(-c3ccc(Oc4nccc(C)n4)cc3)c3c(N)ncnc3n2C)cn1", "> 7.00"),
    ("C=C(C)C(=O)Nc1ccc(-c2c(-c3ccc(C(=O)NCC(C)C)c(OC)c3)c3c(N)ncnc3n2C)cc1", "4.00 to 6.00"),
]
